Cited source: PubChem BioAssay AID192

Tested on: BDF1 mice, B16 melanoma ip, median survival T/C
assayName: NCI In Vivo Anticancer Drug Screen. Data for tumor model B16 Melanoma (intraperitoneal) in B6D2F1 (BDF1) mice
conditionDescription: endpoint: median survival time; dose: 3.13 mg/kg/injection; schedule: Q01DX009 (ip); vehicle: saline with Tween-80; higher = longer survival
Inconclusive results and toxic doses are left out.
Known T/C of a selection of molecules
outcomeMeasure: T/C

>  <molecule>
CCOC(=O)CCCc1ccc(N=NN(C)C)cc1

>  <assaySystem>
BDF1 mice, B16 melanoma ip, median survival T/C

>  <measuredValue>
105 % of control

$$$$
>  <molecule>
Cc1ccc(Cl)cc1NC(=O)Nc1ccccc1Cl

>  <assaySystem>
BDF1 mice, B16 melanoma ip, median survival T/C

>  <measuredValue>
93 % of control

$$$$
>  <molecule>
Cc1cc(N(C)C)cc(C)c1N=Nc1cc[n+]([O-])cc1

>  <assaySystem>
BDF1 mice, B16 melanoma ip, median survival T/C

>  <measuredValue>
98 % of control

$$$$
>  <molecule>
CCCCCCCCCCCCCC(C)NCc1ccccc1 (stereo not drawn)

>  <assaySystem>
BDF1 mice, B16 melanoma ip, median survival T/C

>  <measuredValue>
100 % of control

$$$$
>  <molecule>
Cc1cnc(/C=N\NC(N)=S)c2cccc(N)c12

>  <assaySystem>
BDF1 mice, B16 melanoma ip, median survival T/C

>  <measuredValue>
114 % of control

$$$$
>  <molecule>
COC(=O)CCC1=C(C)c2cc3[n-]c(cc4nc(cc5[n-]c(cc1n2)c(CCC(=O)OC)c5C)C=C4C)cc3C.[Ni+2]

>  <assaySystem>
BDF1 mice, B16 melanoma ip, median survival T/C

>  <measuredValue>
88 % of control

$$$$
>  <molecule>
CC(=O)Oc1cc2c3c(c1)CCCN3CCC2

>  <assaySystem>
BDF1 mice, B16 melanoma ip, median survival T/C

>  <measuredValue>
90 % of control

$$$$
>  <molecule>
CC(=O)O[C@H]1C(=O)O[C@@H]2C[C@H]3C(C)=CC(=O)[C@@H](O)[C@]3(C)[C@H]3[C@@]4(O)OC[C@]32[C@@H]1[C@@H](C)[C@H]4O

>  <assaySystem>
BDF1 mice, B16 melanoma ip, median survival T/C

>  <measuredValue>
107 % of control

$$$$

---

Tested on: BDF1 mice, B16 melanoma ip, median survival T/C
assayName: NCI In Vivo Anticancer Drug Screen. Data for tumor model B16 Melanoma (intraperitoneal) in B6D2F1 (BDF1) mice
conditionDescription: endpoint: median survival time; dose: 200.0 mg/kg/injection; schedule: Q04DX003 (ip); vehicle: Klucel (hydroxypropylcellulose) (HPC); higher = longer survival
Toxic doses and inconclusive results are not listed.

>  <structureNotation>
CCOC(=O)C(NC(C)=O)C(=O)OCC

>  <assaySystem>
BDF1 mice, B16 melanoma ip, median survival T/C

>  <T/C>
102 % of control

$$$$
>  <structureNotation>
O=C(O)c1ccc(SSc2ccc(C(=O)O)cn2)nc1

>  <assaySystem>
BDF1 mice, B16 melanoma ip, median survival T/C

>  <T/C>
97 % of control

$$$$
>  <structureNotation>
C[Si](C)(C)c1cc(F)c(F)c(F)c1F

>  <assaySystem>
BDF1 mice, B16 melanoma ip, median survival T/C

>  <T/C>
92 % of control

$$$$
>  <structureNotation>
COc1ccc(/C=C(\NC(C)=O)C(=O)O)cc1

>  <assaySystem>
BDF1 mice, B16 melanoma ip, median survival T/C

>  <T/C>
105 % of control

$$$$
>  <structureNotation>
COC(=O)/C=C/NC(=O)c1ccccc1C(=O)OC

>  <assaySystem>
BDF1 mice, B16 melanoma ip, median survival T/C

>  <T/C>
86 % of control

$$$$

---

Tested on: BDF1 mice, B16 melanoma ip, median survival T/C
assayName: NCI In Vivo Anticancer Drug Screen. Data for tumor model B16 Melanoma (intraperitoneal) in B6D2F1 (BDF1) mice
conditionDescription: endpoint: median survival time; dose: 400.0 mg/kg/injection; schedule: Q01DX009 (ip); vehicle: Klucel (hydroxypropylcellulose) (HPC); higher = longer survival
Toxic doses and inconclusive results are not listed.
Known T/C of a selection of molecules
outcomeMeasure: T/C

>  <molecule>
O=C(OCOC(=O)c1ccccc1)c1ccccc1

>  <measuredValue>
114 % of control

$$$$
>  <molecule>
O=C(Nc1ccccc1)Oc1ccc(Cl)cc1

>  <measuredValue>
99 % of control

$$$$
>  <molecule>
CCCCCCCCCc1ccc(OC(=O)CCC)cc1

>  <measuredValue>
87 % of control

$$$$
>  <molecule>
CCOc1ccc(NC(=O)Nc2cccc(Cl)c2)cc1

>  <measuredValue>
96 % of control

$$$$
>  <molecule>
O=C1CN=C(c2ccccc2)c2cc([N+](=O)[O-])ccc2N1

>  <measuredValue>
86 % of control

$$$$
>  <molecule>
O=C(Nc1ccccc1F)Nc1cccc2ccccc12

>  <measuredValue>
94 % of control

$$$$
>  <molecule>
COc1cc2c(cc1OC)C(CNC(=O)/C=C/c1ccccc1)C2 (configuration not stated)

>  <measuredValue>
94 % of control

$$$$
>  <molecule>
CCCC1(C)COB(c2ccc(C)cc2)OC1

>  <measuredValue>
90 % of control

$$$$
>  <molecule>
Nc1nc(N)nc(N)n1

>  <measuredValue>
105 % of control

$$$$
>  <molecule>
CC(Cl)CN(CC(C)Cl)C(=O)OCC(NC(=O)OCc1ccccc1)C(=O)OCc1ccccc1 (configuration not stated)

>  <measuredValue>
88 % of control

$$$$
>  <molecule>
O=C(Nc1cc(C(F)(F)F)ccc1Cl)c1ccccc1

>  <measuredValue>
94 % of control

$$$$
>  <molecule>
Cc1ccc(Cl)cc1NC(=O)c1ccccc1C(=O)O

>  <measuredValue>
103 % of control

$$$$

---

Test system: BDF1 mice, B16 melanoma ip, median survival T/C
assayName: NCI In Vivo Anticancer Drug Screen. Data for tumor model B16 Melanoma (intraperitoneal) in B6D2F1 (BDF1) mice
conditionDescription: endpoint: median survival time; dose: 12.5 mg/kg/injection; schedule: Q01DX009 (ip); vehicle: saline with Tween-80
Experimental: The antitumor activity of compounds was measured in mice bearing transplantable tumors. Survival or tumor size were measured and the results are expressed as the measurement made in the treated group (T) divided by the measurement made in the vehicle treated control group (C). The tumor model used in this assay is B16 Melanoma (intraperitoneal) in B6D2F1 (BDF1) mice
Inconclusive results and toxic doses are left out. How the source made its calls: active means survival T/C of 150% or more; inactive means T/C below 125% in these data.
Possible outcomes: 1 (yes) for active, 0 (no) for inactive

>  <molecule>
N#Cc1ccc(C(=O)C=C(C(F)(F)F)C(F)(F)F)cc1

>  <class>
0 (no)

$$$$
>  <molecule>
C=CS(=O)(=O)c1ccccc1

>  <class>
0 (no)

$$$$
>  <molecule>
ClC1CCCC[N-]1.ClC1CCCC[N-]1.[Cl][Pt+2][Cl] (stereo unspecified)

>  <class>
0 (no)

$$$$
>  <molecule>
CC1(C)N=C(N)N=C(N)N1c1cccc(CCCCOc2ccccc2)c1

>  <class>
0 (no)

$$$$
>  <molecule>
CC(C)(C)CC(C)(C)c1ccc(O)c(O)c1

>  <class>
0 (no)

$$$$
>  <molecule>
ClCc1cccc2c(CCl)cccc12

>  <class>
0 (no)

$$$$
>  <molecule>
O=C1C=C(C2CCCCC2)C(=O)c2ccccc21

>  <class>
0 (no)

$$$$
>  <molecule>
COP12(OCCO1)SC(C(F)(F)F)=C(C(F)(F)F)S2

>  <class>
0 (no)

$$$$
>  <molecule>
C/C=C/c1cc2c(c(=O)o1)C(=O)[C@@H](O)[C@H](C)O2

>  <class>
0 (no)

$$$$
>  <molecule>
O=C(CC1(Cl)C(F)(F)C(F)(F)C1(F)F)c1ccccc1

>  <class>
0 (no)

$$$$
>  <molecule>
O=NN(CCCl)C(=O)NC1c2cc(Cl)ccc2-c2c(Cl)cc(Cl)cc21 (stereo unspecified)

>  <class>
1 (yes)

$$$$
>  <molecule>
CCOC(=O)/N=[N+](\[O-])c1ccccc1

>  <class>
0 (no)

$$$$
>  <molecule>
NC(N)=NC(N)=Nc1ccc(-c2ccc(N=C(N)N=C(N)N)cc2)cc1

>  <class>
0 (no)

$$$$
>  <molecule>
C(=NCCN1CCOCC1)=NC1CCCCC1

>  <class>
0 (no)

$$$$
>  <molecule>
Nc1nnc[se]1

>  <class>
0 (no)

$$$$
>  <molecule>
O=S(=O)(c1ccccc1)N1CN2CCN(C2)C1

>  <class>
0 (no)

$$$$
>  <molecule>
c1ccc(CCN2CCC(CCc3c[nH]c4ccccc34)CC2)cc1

>  <class>
0 (no)

$$$$
>  <molecule>
OC(CC(O)(C(F)(F)F)C(F)(F)F)CC(O)(C(F)(F)F)C(F)(F)F

>  <class>
0 (no)

$$$$
>  <molecule>
CCCC[P+](CCCC)(CCCC)C(C)C

>  <class>
0 (no)

$$$$
>  <molecule>
COC(=O)C(CCCCN=Cc1ccccc1O)N=Cc1ccccc1O.[Ni] (stereo unspecified)

>  <class>
0 (no)

$$$$
>  <molecule>
O=c1cc(O)c1=O

>  <class>
0 (no)

$$$$
